assay: Inhibitory activity against farnesyl transferase
Checkbox rule: IC50 lower than 4 µM = 1.0; IC50 not lower than 4 µM = 0.0.

Solved entries:
COC(=O)[C@H](CCSC)NC(=O)[C@H](Cc1ccc(O)c(C)c1C)NC(=O)[C@@H](NC(=O)[C@@H](N)CS)C(C)C: 0.0
CSCC[C@H](NC(=O)[C@@H](Cc1ccc(O)c(C)c1C)NC(=O)[C@@H](NC(=O)[C@@H](N)CS)C(C)C)C(=O)O: 0.0
CSCC[C@H](NC(=O)[C@@H](Cc1ccc(O)cc1C)NC(=O)[C@@H](NC(=O)[C@@H](N)CS)C(C)C)C(=O)O: 0.0

Q: Is IC50 strictly under 4 µM for the entry CSCC[C@H](NC(=O)[C@H](Cc1ccc(O)c(C)c1C)NC(=O)[C@@H](NC(=O)[C@H](CS)NC=O)C(C)C)C(=O)O ?
Result: 0.0

Q: Is IC50 strictly under 4 µM for the entry CSCC[C@H](NC(=O)[C@H](Cc1ccc(C)cc1C)NC(=O)[C@@H](NC(=O)[C@@H](N)CS)C(C)C)C(=O)O ?
Result: 1.0

Q: Is IC50 strictly under 4 µM for the entry CSCC[C@H](NC(=O)[C@H](Cc1ccc(O)cc1C)NC(=O)[C@@H](NC(=O)[C@@H](N)CS)C(C)C)C(=O)O ?
Result: 0.0

Q: Is IC50 strictly under 4 µM for the entry CSCC[C@H](NC(=O)[C@H](Cc1cc(C)c(O)cc1C)NC(=O)[C@@H](NC(=O)[C@@H](N)CS)C(C)C)C(=O)O ?
Result: 1.0
